Data origin: PubChem BioAssay (NCI)

- Tested on: A549 NSCLC
- protocol: NCI tumour cell line growth inhibition, 48 h
quantity_name: TGI

* Cn1c(CBr)nc2c1C(=O)c1nc(CBr)[nH]c(=O)c1C2=O | > 100 µM
* Cc1c(O)c(=O)ccn1CCN | > 100 µM
* O=C1CCN2c3ccccc3[C@H]3Cc4cccc(c4[C@@H]2C3)CCO1 | > 100 µM
* COc1cc([N+](=O)[O-])c(OC)cc1-c1nc2sc(C)c(C)n2c1/C(N)=N/C(=N)N | > 100 µM
* CCOC(=O)c1c(-c2ccccc2)[n+](=O)c2cc(Cl)c(Cl)cc2n1[O-] | 34.4 µM
* C[N+](C)(CCCCCC[N+](C)(C)CCCN1C(=O)c2cccc3cccc(c23)C1=O)CCCN1C(=O)c2cccc3cccc(c23)C1=O | > 100 µM
* O=C(Nc1ccc([N+](=O)[O-])cc1)Nn1cnnc1 | > 100 µM
* COC(=O)C(CC(C)C)NC(=O)C(NC(=O)c1ccc(-c2ccc(Cl)cc2Cl)o1)C(C)C (stereo unspecified) | > 100 µM
* CN(C)c1ccc(/C=C/C(=O)c2ccc(O)cc2)cc1 | > 100 µM
* CC(C)[C@@H]1CC[C@@H](C)C[C@H]1OC(=O)c1c2n(c3ccccc13)C[C@H]1OC(C)(C)O[C@@H]21 | > 100 µM
* C=C1C[C@H]2C=Nc3cc(OCCCOc4cc5c(cc4OC)C(=O)N4CC(=C)C[C@H]4C=N5)c(OC)cc3C(=O)N2C1 | > 100 µM
* COc1cc(/C=C2\C(=O)N(Cc3ccc(Cl)cc3)c3ccccc32)cc(OC)c1OC | 19.2 µM
* COc1ccc(C2c3cc4c(cc3OC(NNc3ccccc3)C2C)OCO4)cc1 (stereo unspecified) | > 100 µM
* C1CNOCCCONCCCNOCCCONC1 | > 100 µM
* CC(C)=CCCC(C)(OC1OC(CO)C(O)C(O)C1O)C1CCC2(C)C1C(O)CC1C3(C)CCC(O)C(C)(C)C3C(OC3OC(CO)C(O)C(O)C3OC3OC(C)C(O)C(O)C3O)CC12C (stereo unspecified) (tested in a mixture with another compound) | > 75 µM
* COC1C2C[C@@H](O)CCC2C(C(=O)OCCl)C[C@H]1O (stereo partly specified) | > 100 µM
* CCOC1=C2N=C(C(CC)c3ccccc3F)N=C2C(=O)c2ccccc21 (stereo unspecified) | > 100 µM
* CC(CSC(=N)N)C(N)=O (stereo unspecified) | > 100 µM
* CC1(C)OP(=O)(c2ccccc2)C=C1Sc1ccc([N+](=O)[O-])cc1[N+](=O)[O-] (stereo unspecified) | > 100 µM
* CC1=C(c2nc3ccccc3s2)C(=O)OC1(C)C | > 100 µM
* C/C(=N\O)c1ccc2ccc3ccccc3c2c1 | 79.8 µM

* * *

- Test system: SF-295 CNS
- protocol: NCI tumour cell line growth inhibition, 48 h
quantity_name: TGI (µM)

- O=C1/C(=C/c2ccc(Cl)c(Cl)c2)CN(C(=O)C(Cl)Cl)C/C1=C\c1ccc(Cl)c(Cl)c1: 0.704
- FC(F)(F)c1ccccc1C1SCC2=Nc3ccccc3CN21 (stereo not given): 26.2
- CC(C)OC(=O)c1ccc(NCc2cc(O)ccc2O)cc1: 20.4
- COc1cc(CNCCCCCCN2C(=O)c3cccc4cccc(c34)C2=O)ccc1O: 25.4
- C=C1CC(C)(COc2ccc3c(C)c(Cl)c(=O)oc3c2)OC1=O (stereo not given): 21.4
- COc1cc2cc(Oc3ccc(NC(=O)Nc4cc(C(F)(F)F)cc(C(F)(F)F)c4)cc3)c(C)nc2cc1OCCN1CCOCC1: 2.92
- CCOC(=O)c1c(-c2ccccc2)[n+](=O)c2cc(Cl)c(Cl)cc2n1[O-]: 15.9
- O[C@]12C=C(c3nccc4c3[nH]c3ccccc34)[C@@H]3CCN(CCCC/C=C\CC1)C[C@@]31CC3/C=C\CCCCN3[C@H]12 (stereo not given in full): 2.67
- C#Cc1cccc(Nc2ncnc3cc(NC(=O)CCl)ccc23)c1: 6.95
- CN1CCN(CC(=O)N(C)c2ccc(N=C(c3ccccc3)c3c(O)[nH]c4ccc(C#N)cc34)cc2)CC1: 15.8

* * *

# GI50 listing for each entry below
- Tested on: UACC-257 melanoma
- protocol: NCI tumour cell line growth inhibition, 48 h
quantity_name: GI50

- NC1NC=NC2C1N=CN2C1OC(CO)C2[O][Sn][O]C21 (configuration not stated): > 100000 nM
- O=C1/C(=C/c2ccc(Cl)c(Cl)c2)CN(C(=O)C(Cl)Cl)C/C1=C\c1ccc(Cl)c(Cl)c1: 666 nM
- CO[C@H]1C[C@@H]2CC[C@@H](C)[C@@](O)(O2)C(=O)C(=O)N2CCCC[C@H]2C(=O)O[C@H]([C@H](C)C[C@@H]2CC[C@@H](OC(=O)C(C)(CO)CO)[C@H](OC)C2)CC(=O)[C@H](C)/C=C(\C)[C@@H](O)[C@@H](OC)C(=O)[C@H](C)C[C@H](C)\C=C/C=C/C=C/1C: > 10000 nM
- COc1cc2oc(-c3cccc(C(=O)Nc4ccc(Cl)cc4)c3)cc(=O)c2c(OC)c1OC: 2530 nM
- O=C1Nc2ccc(Br)cc2C12CC(c1ccccc1)=NN2 (configuration not stated): 5980 nM
- O=C1[C@@H]2C(c3ccc(Br)cc3)=NO[C@@H]2C(=O)N1c1ccc(Cc2ccc(N3C(=O)[C@H]4C(c5ccc(Br)cc5)=NO[C@H]4C3=O)cc2)cc1: > 40000 nM
- CC(C)=CCc1cc2c(cc1O)C1=C(C(=O)C3=C(C1=O)S(=O)(=O)CCN3)C(C=C(C)C)O2 (configuration not stated): 482 nM

* * *

- System: A549 NSCLC
- protocol: NCI tumour cell line growth inhibition, 48 h
# TGI listing for each entry below
quantity_name: TGI

* CC(C)(CN1C(=O)C(Cl)=C(Cl)C1=O)CN1C(=O)C(Cl)=C(Cl)C1=O | > 72.7 µM
* CC(C)c1cccc(C(C)C)c1NC(=O)C(=O)Cc1nc2ccc([N+](=O)[O-])cc2[nH]c1=O | > 100 µM
* CC(C)N(C(=O)C12C3C4C1C1C2C3C41C#N)C(C)C (configuration not stated) | > 100 µM
* CC(C)/C=C1\CCC(CN(C)C)C1=O (configuration not stated) | 17.2 µM
* S=c1sc2c(s1)SC(c1ccccc1)CS2 (configuration not stated) | > 100 µM
* CO/C(N)=C(\C#N)N=Cc1ccc2ccccc2c1 | > 100 µM
* C[C@]12C=CC(=O)C=C1CC[C@@H]1[C@@H]2CC[C@@]2(C)[C@H]1CC[C@]2(O)C(N)=O | > 100 µM
* CCOCC1(COCC)CCC(c2[nH]ncc2CN(C)CCNC)CC1 | > 100 µM
* CCCCOCCOCCOC1=CC(=O)c2c(O)ccc(O)c2C1=O | 3.43 µM
* CCN1CCN(c2nc(C)cc(N(CCCNc3ccnc4cc(Cl)ccc34)Cc3ccc4c(c3)OCO4)n2)CC1 | 7.42 µM
* CC1(C)C2CCC3CC(CCC#N)CCC3C21C#N (configuration not stated) | > 100 µM
* Nc1nc(NNc2cccc(F)c2)cc(=O)[nH]1 | > 100 µM
* CCc1n[nH]c(=O)n1CCCCCCCCn1c(CC)n[nH]c1=O | > 100 µM
* COc1ccc(N2C(=O)c3c(c4[nH]c5ccccc5c4c4ccc(C(C)(C)C)cc34)C2=O)cc1 | > 100 µM
* O=C1[C@@H]2C(c3ccc(Br)cc3)=NO[C@@H]2C(=O)N1c1ccc(Cc2ccc(N3C(=O)[C@H]4C(c5ccc(Br)cc5)=NO[C@H]4C3=O)cc2)cc1 | > 3.48 µM
* Oc1ccc(Br)cc1C=Nc1cccc(C(F)(F)F)c1 | > 100 µM
* CCNC(=O)C(C)C1CCC2(C)C=CC(=O)C(C)=C2C1O (configuration not stated) | > 100 µM
* COc1cc2oc(-c3cccc(C(=O)Nc4ccc(Cl)cc4)c3)cc(=O)c2c(OC)c1OC | > 100 µM
* O=C(CS(=O)(=O)c1nc2ccccc2nc1-c1ccccc1)Nc1ccc(F)cc1 | > 100 µM
* COC(=O)CCSC(=O)Nc1ccc(N=Nc2ccccc2)cc1 | > 100 µM
* O=Cc1c[nH]c2c(=O)[nH]cnc12 | > 100 µM
* CCCn1c2c(c3ccccc3c1=O)C(=O)c1ccccc1-2 | > 100 µM

* * *

- System: OVCAR-4 ovarian
- protocol: NCI tumour cell line growth inhibition, 48 h
quantity_name: TGI

- CCCCCCCC/C=C1\CCC(CN(C)C)C1=O (centres undefined): 29.1 µM
- CCOC(=O)N/N=C(/N)c1cccc(Br)c1: > 100 µM
- COc1ccc(/C=c2\c(=O)[nH]c3nc4ccccc4c(=O)n23)cc1: > 100 µM
- COc1cc2c(c(OC)c1OC)-c1ccc(SC)c(=O)cc1[C@@H](NCc1ccc(F)cc1)CC2: > 100 µM
- O=C(Cc1ccccc1)NN1C(=O)C(Cl)C1c1ccccc1Cl (centres undefined): > 100 µM
- CCNC(=O)C(C)C1CCC2(C)C=CC(=O)C(C)=C2C1O (centres undefined): > 100 µM
- CSC1=NC(=Nc2c(C)cccc2C)C2(CCC(C(C)(C)C)CC2)N1c1ccc(Cl)cc1 (centres undefined): > 100 µM
- CCCn1c2c(c3ccccc3c1=O)C(=O)c1ccccc1-2: > 100 µM
- CCN(CC)CCCNc1c2c(Cl)cc(Cl)cc2nc2nc(=O)[nH]c(C)c12: > 100 µM
- CCOC(=O)C(NC(=O)OCc1ccccc1)C(=O)O (centres undefined): > 100 µM
- CCCCC1=CSC(c2ccccc2)=C(c2ccccc2)S1: > 100 µM
- COc1cc[c]([Sn]([c]2ccc(OC)cc2)([c]2ccc(OC)cc2)[c]2ccc(OC)cc2)cc1: 62.8 µM
- CC(C)(C)c1cc(C(=O)Nc2ccccc2C(=O)NCCN)cc(C(C)(C)C)c1: 3.82 µM
- O=[N+]([O-])c1ccc(SN=S=NSc2cccc(SN=S=NSc3ccc([N+](=O)[O-])cc3)c2)cc1: > 100 µM
- Cc1cc2ncn(-c3nc4ccccc4nc3C(C#N)S(C)(=O)=O)c2cc1C (centres undefined): > 100 µM
- COc1ccc(-c2cc(=O)c3c(O)c(OC)c(OC)c(OC)c3o2)cc1OC: > 100 µM
- Cc1ccccc1N=Nc1c(O)ccc2ccccc12: > 100 µM
- C/C(=C/C(=O)Nc1ccccc1)Nc1onc(C)c1C: > 100 µM
- COc1ccc(C(O)c2cc3c(N)c(C(=O)Nc4ccc(Cl)cc4)sc3nc2C)cc1 (centres undefined): 7.47 µM
- CCOC1OC(CO)C(O)CC1n1ccc(=O)[nH]c1=O (centres undefined): > 100 µM
- O=S1(=O)N2CN3CN(C2)CN1C3: 80.8 µM
- C=C1C(=O)O[C@H]2[C@H]1CC/C(COC(=O)c1cc(OC)c(OC)c(OC)c1)=C\CC[C@@]1(C)O[C@@H]21: 6.11 µM
- C#CC[C@@H]1C(=O)N(Cc2ccc(OC)cc2)[C@@H](C(C)C)C(=O)N1Cc1ccc(OC)cc1: > 100 µM
- COC(=O)C(=O)C(C(=O)OC)C(=O)C(=O)Nc1c(C)cccc1C (centres undefined): > 100 µM
- NC1NC=NC2C1N=CN2C1OC(CO)C2[O][Sn][O]C21 (centres undefined): > 100 µM
- CC1(C)OC(=O)C(C)(C)C(=O)O1: > 100 µM
- O=[N+]([O-])c1ccc(C2=Nc3ccccc3S(=O)C(c3ccccc3)C2)cc1 (centres undefined): 42 µM
- COc1cccc2c1-c1nc(N)c3c(OC)cccc3c1C2=O: > 100 µM
- COC(=O)c1ccc2c(c1)CC1(C2)Cc2cc3c(cc2C1)CCC3: > 100 µM
- COc1ccc(C(O)/C(=N/N)c2nc3ccc(Cl)cc3[nH]c2=O)cc1 (centres undefined): > 100 µM
- COC1C2C[C@@H](O)CCC2C(C(=O)OCCl)C[C@H]1O (some centres undefined): > 100 µM
- CCOC(=O)Cc1cc(OC)c(OC)cc1/C(Cl)=C(\CO)c1ccc(OC)c(OC)c1: > 100 µM
- CC(C)c1cccc(C(C)C)c1NC(=O)C(=O)Cc1nc2ccc([N+](=O)[O-])cc2[nH]c1=O: > 100 µM
- C[C@@]1([C@H](OC(=O)c2ccccc2)C(N)=O)CO1: > 100 µM
- CSc1nc(=S)[nH]c2c1c(C)nn2-c1ccccc1: 40.9 µM
- CCc1n[nH]c(=O)n1CCCCCCCCn1c(CC)n[nH]c1=O: > 100 µM
- COc1cccc(/C=C/C(=O)c2ccc3cc(OC)ccc3c2)c1: > 50 µM
- Cc1nc(N)nc(N)c1CCCCc1ccc(N)cc1: 25.8 µM
- Cc1ccc(C(=O)CC2(O)C(=O)Nc3c(C)cc(Cl)cc32)cc1 (centres undefined): > 100 µM
- Clc1ccc(Nc2nnc(CNc3ccc(-c4nnc(Nc5ccc(Cl)cc5)s4)cc3)s2)cc1: > 100 µM
- O=C(NN1C(=O)C(Cl)C1c1ccccc1O)c1ccccc1O (centres undefined): > 100 µM
- O=C1NC(=S)S/C1=C\c1cn(-c2ccccc2)nc1-c1ccccc1: > 100 µM
- CN(C)CCNC(=O)c1cccc2c1nc(-c1ccc(F)cc1)c1ccccc12: 19.1 µM
- OCC#CCNCl: > 100 µM
